# Organism: Rattus norvegicus
# ASSAY OVERVIEW: Open TG-GATES - Regimen: Single
# Format: toxicity, organism-based, Sprague-Dawley
# Set-up: regimen Single, gender Male, age 6 weeks
# PROTOCOL CONDITIONS: in vivo, po, 0 mg/kg, 6 h, tissue Blood, route gavage, dose level Control
APTT values for the compounds below.
PROPERTY MEASURED: APTT (s)

- CCN1CCCC1CNC(=O)c1cc(S(N)(=O)=O)ccc1OC (centres undefined) [SULPIRIDE]: 17.4
- C[C@]12CCC(=O)C=C1CC[C@@H]1[C@@H]2CC[C@@]2(C)[C@H]1CC[C@]2(C)O: 17.1
- CC(C)(S)[C@@H](N)C(=O)O: 16.2
- CC(=N)S [THIOACETAMIDE]: 17
